A collection of compounds and their measured Vi/Vo
Target Entity: T1, memapsin 2 (Homo sapiens, UniProt P56817)
T1 construct: pET-11 vector-derived residues 1-15 of promemapsin 2-T1 (N, cleaved yes); made in house; host or cells: E. coli
T1 sequence (P56817 41-454 limits assumed): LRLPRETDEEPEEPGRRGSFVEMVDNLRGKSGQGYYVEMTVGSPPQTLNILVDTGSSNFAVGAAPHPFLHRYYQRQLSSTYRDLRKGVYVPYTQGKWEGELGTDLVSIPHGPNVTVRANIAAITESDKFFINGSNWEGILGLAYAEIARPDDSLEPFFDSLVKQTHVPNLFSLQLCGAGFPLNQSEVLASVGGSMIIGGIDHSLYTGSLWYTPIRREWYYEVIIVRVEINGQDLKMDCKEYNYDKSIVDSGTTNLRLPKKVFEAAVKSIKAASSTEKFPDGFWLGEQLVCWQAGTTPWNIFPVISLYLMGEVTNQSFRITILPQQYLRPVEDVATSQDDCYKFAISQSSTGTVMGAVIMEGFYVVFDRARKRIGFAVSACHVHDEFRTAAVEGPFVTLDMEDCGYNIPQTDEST
Test Summary: Inhibition of memapsin 2 proteolytic activity, fluorogenic substrate FS-2
Type: biochemical
Run Conditions: ratio of initial cleavage velocities of FS-2 with/without compound; enzyme and inhibitor concentrations equal (e.g., about 80 nM, 100 nM)
Answer with a number only.

// below: answered compounds
- Compound: "CSCC[C@H](NC(=O)[C@@H](NC(=O)OC(C)(C)C)C(C)C)C(=O)N[C@@H](CC(C)C)[C@@H](O)C[C@@H](CC(N)=O)C(=O)N[C@H](C(=O)NCc1ccccc1)C(C)C"
  Vi/Vo: 0.4
- Compound: "CSC[C@H](NC(=O)OCc1ccccn1)C(=O)N[C@@H](CC(C)C)[C@@H](O)C[C@@H](C)C(=O)N[C@H](C(=O)NCc1ccccc1)C(C)C"
  Vi/Vo: 0.76
- Compound: "CSCC[C@H](NC(=O)[C@@H](NC(=O)OC(C)(C)C)C(C)C)C(=O)N[C@@H](CC(C)C)[C@@H](O)C[C@H](C)NC(=O)[C@H](NC(=O)OCc1ccccc1)C(C)C"
  Vi/Vo: 1.1

Requested read-out: Vi/Vo. Entry: CC(C)C[C@H](NC(=O)[C@H](CS(C)(=O)=O)NC(=O)OCc1ccncc1)[C@@H](O)C[C@@H](C)C(=O)N[C@H](C(=O)NCc1ccccc1)C(C)C [MMI-128]
0.66

Queued: `CSCC[C@H](NC(=O)[C@@H](NC(=O)OC(C)(C)C)C(C)C)C(=O)N[C@@H](CO)[C@@H](O)C[C@@H](C)C(=O)N[C@H](C(=O)NCc1ccccc1)C(C)C`
0.08

----------
Target Entity: T1, memapsin 1 (Homo sapiens, UniProt Q9Y5Z0)
T1 construct: pET-11 vector-derived residues 1-14 of promemapsin 1-T1 (N, cleaved yes); made in house; host or cells: E. coli
T1 sequence (Q9Y5Z0 63-466 limits assumed): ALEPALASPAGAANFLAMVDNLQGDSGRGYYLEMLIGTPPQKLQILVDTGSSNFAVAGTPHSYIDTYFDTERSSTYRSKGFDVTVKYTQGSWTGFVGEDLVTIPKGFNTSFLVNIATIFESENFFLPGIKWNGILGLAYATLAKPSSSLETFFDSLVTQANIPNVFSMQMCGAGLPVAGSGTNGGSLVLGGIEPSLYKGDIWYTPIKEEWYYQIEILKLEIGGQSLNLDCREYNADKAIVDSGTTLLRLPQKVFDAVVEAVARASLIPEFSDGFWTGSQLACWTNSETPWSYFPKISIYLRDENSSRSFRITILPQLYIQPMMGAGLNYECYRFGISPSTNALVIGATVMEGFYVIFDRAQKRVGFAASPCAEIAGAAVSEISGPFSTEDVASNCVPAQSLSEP
Test Summary: Inhibition of memapsin 1 proteolytic activity, fluorogenic substrate FS-2
Assay type: biochemical
Run Conditions: enzyme concentration equals the compound concentration
Assay Metric: % Inhibition Mep1 (%)
Numeric answer only, unit % assumed.

// below: answered compounds
- Compound: "CSCC[C@H](NC(=O)OCn1nc(C)cc1C)C(=O)N[C@@H](CC(C)C)[C@@H](O)C[C@@H](C)C(=O)N[C@@H](CC(C)C)C(=O)NC(CF)CF [MMI-171]"
  % Inhibition Mep1 [%]: 8
- Compound: "CSCC[C@H](NC(=O)[C@@H](NC(=O)OC(C)(C)C)C(C)C)C(=O)N[C@@H](CC(C)C)[C@@H](O)C[C@@H](CO)C(=O)N[C@H](C(=O)NCc1ccccc1)C(C)C [MMI-132]"
  % Inhibition Mep1 [%]: 61

Return % Inhibition Mep1 measured with T1, memapsin 1 (Homo sapiens, UniProt Q9Y5Z0) given this compound: CSCC[C@H](NC(=O)OCn1nc(C)cc1C)C(=O)N[C@@H](CC(C)C)[C@@H](O)C[C@@H](C)C(=O)N[C@H](C(=O)NCC(C)C)C(C)C [MMI-156]
32

Queued: CSCC[C@H](NC(=O)OCn1nc(C)cc1C)C(=O)N[C@@H](CC(C)C)[C@@H](O)C[C@]1(C)CCN([C@@H](CC(C)C)C(=O)NCC(C)C)C1=O [MMI-181]
9

----------
Target Entity: T1, memapsin 2 (Homo sapiens, UniProt P56817)
T1 construct: pET-11 vector-derived residues 1-15 of promemapsin 2-T1 (N, cleaved yes); made in house; host or cells: E. coli
Test Summary: Inhibition of memapsin 2 proteolytic activity, fluorogenic substrate FS-2
Format: biochemical
Run Conditions: ratio of initial cleavage velocities of FS-2 with/without compound; enzyme and inhibitor concentrations equal (e.g., about 80 nM, 100 nM)
Use 0.6 as the dividing line for Vi/Vo, with the line itself on the Y side and lower values as N.

Below are worked cases with known answers.
- Compound: "CSCC[C@H](NC(=O)OCc1ccco1)C(=O)N[C@@H](CC(C)C)[C@@H](O)C[C@@H](C)C(=O)N[C@H](C(=O)NCc1ccccc1)C(C)C"
  Answer Label: "N"
- Compound: "CSCC[C@H](NC(=O)[C@@H](NC(=O)OC(C)(C)C)C(C)C)C(=O)N[C@@H](CC(C)C)[C@@H](O)C[C@@H](C)C(=O)N[C@@H](CC(C)C)C(=O)N1CCOCC1"
  Answer Label: "Y"
- Compound: "CCCCNC(=O)[C@@H](NC(=O)[C@H](C)C[C@H](O)[C@H](CC(C)C)NC(=O)[C@H](CCSC)NC(=O)[C@H](CC(C)C)NC(=O)OC(C)(C)C)C(C)C"
  Answer Label: "N"
- Compound: "CSCC[C@H](NC(=O)OCCn1nc(C)cc1C)C(=O)N[C@@H](CC(C)C)[C@@H](O)C[C@@H](C)C(=O)N[C@@H](CC(C)C)C(=O)NCC(C)C"
  Answer Label: "Y"

Here is the next item to consider.
Item `CSCC[C@H](NC(=O)[C@H](CC(C)C)NC(=O)OC(C)(C)C)C(=O)N[C@@H](CC(C)C)[C@@H](O)C[C@@H](C)C(=O)N[C@@H](CC(C)C)C(=O)NC(C)C` with Vi/Vo of 0.6 or above?
N

----------
A collection of compounds and their measured log10(Ki)
Target Entity: T1, memapsin 2 (Homo sapiens, UniProt P56817)
T1 construct: pET-11 vector-derived residues 1-15 of promemapsin 2-T1 (N, cleaved yes); made in house; host or cells: E. coli
Test Summary: Inhibition of memapsin 2 proteolytic activity, fluorogenic substrate FS-2
Assay type: biochemical
Run Conditions: memapsin 2; apparent Ki in presence of substrate FS-2; read-out: Ki app
Recorded Ki (log10, nM)

// below: answered compounds
- Compound: "CSCC[C@H](NC(=O)C(C)Cn1nc(C)cc1C)C(=O)N[C@@H](CC(C)C)[C@@H](O)C[C@@H](C)C(=O)N[C@@H](CC(C)C)C(=O)NCc1ccco1 (stereo partly shown)"
  Value Observed: 2.04
- Compound: "CSCC[C@H](NC(=O)OCc1ncc(C)n1C)C(=O)N[C@@H](CC(C)C)[C@@H](O)C[C@@H](C)C(=O)N[C@H](C(=O)NCC(C)C)C(C)C"
  Value Observed: 2.36
- Compound: "CC(C)C[C@H](NC(=O)[C@H](CCS(C)(=O)=O)NC(=O)OC(C)(C)C)[C@@H](O)C[C@@H](C)C(=O)N[C@H](C(=O)NCc1ccccc1)C(C)C"
  Value Observed: 3.75
- Compound: "CSCC[C@H](NC(=O)[C@@H](NC(=O)OC(C)(C)C)C(C)C)C(=O)N[C@@H](CC(C)C)[C@@H](O)C[C@@H](C)C(=O)N[C@@H](CC(C)C)C(=O)NCc1ccco1"
  Value Observed: 1.69
- Compound: "CSCC[C@H](NC(=O)CCn1nc(C)cc1C)C(=O)N[C@@H](CC(C)C)[C@@H](O)C[C@@H](C)C(=O)N[C@H](C(=O)NCc1ccco1)C(C)C"
  Value Observed: 1.93

Return log10(Ki) measured with T1, memapsin 2 (Homo sapiens, UniProt P56817) given this compound: CSCC[C@H](NC(=O)C(C)Cn1nc(C)cc1C)C(=O)N[C@@H](CC(C)C)[C@@H](O)C[C@@H](C)C(=O)N[C@H](C(=O)NCC(C)C)C(C)C (stereo partly shown) [MMI-195]
2.65

Queued: `CSCC[C@H](NC(=O)[C@@H](NC(=O)OC(C)(C)C)C(C)C)C(=O)N[C@@H](CC(C)C)[C@@H](O)C[C@@H](C)C(=O)N[C@H](CO)C(C)C`
4.56

Queued: `CSCC[C@H](NC(=O)OCc1ccc(CN(C)C)o1)C(=O)N[C@@H](CC(C)C)[C@@H](O)C[C@@H](C)C(=O)N[C@H](C(=O)NCc1ccccc1)C(C)C`
3.84

Queued: CSCC[C@H](NC(=O)C(C)Cn1nc(C)cc1C)C(=O)N[C@@H](CC(C)C)[C@@H](O)C[C@@H](C)C(=O)N[C@H](C(=O)NCc1ccco1)C(C)C (stereo partly shown)
1.28

Queued: `CSCC[C@H](NC(=O)OCc1c(C)ncn1C)C(=O)N[C@@H](CC(C)C)[C@@H](O)C[C@@H](C)C(=O)N[C@H](C(=O)NCC(C)C)C(C)C`
2.55

Queued: CSCC[C@H](NC(=O)[C@@H](NC(=O)OC(C)(C)C)C(C)C)C(=O)N[C@@H](CC(C)C)[C@@H](O)C[C@@H](C)C(=O)N[C@@H]1CCCC[C@@H]1O [MMI-059]
4.82

----------
Target Entity: T1, memapsin 2 (Homo sapiens, UniProt P56817)
T1 construct: pET-11 vector-derived residues 1-15 of promemapsin 2-T1 (N, cleaved yes); made in house; host or cells: E. coli
Test Summary: Inhibition of memapsin 2 proteolytic activity, fluorogenic substrate FS-2
Assay type: biochemical
Run Conditions: enzyme concentration equals the compound concentration
Lab note: anything with % Inhibition Mep2 below 50% is marked satisfied; values at 50% or higher are marked not satisfied.

- Entry Smiles: "CSCC[C@H](NC(=O)[C@@H](NC(=O)OC(C)(C)C)C(C)C)C(=O)N[C@@H](CC(C)C)[C@@H](O)C[C@@H](C)C(=O)N[C@@H](CC(C)C)C(=O)NCc1ccco1"
  Answer Label: "not satisfied"
- Entry Smiles: "CSCC[C@H](NC(=O)OCCn1nc(C(C)C)cc1C(C)C)C(=O)N[C@@H](CC(C)C)[C@@H](O)C[C@@H](C)C(=O)N[C@H](C(=O)NCC(C)C)C(C)C"
  Answer Label: "satisfied"
- Entry Smiles: "CSCC[C@H](NC(=O)OCn1nc(C)cc1C)C(=O)N[C@@H](CC(C)C)[C@@H](O)C[C@@H](C)C(=O)N[C@H](C(=O)NCc1ccccc1)C(C)C"
  Answer Label: "not satisfied"
- Entry Smiles: "CSCC[C@H](NC(=O)OCn1nc(C)cc1C)C(=O)N[C@@H](CC(C)C)[C@@H](O)C[C@@H](C)C(=O)N[C@@H](CC(C)C)C(=O)NC(CF)CF"
  Answer Label: "satisfied"
- Entry Smiles: "CC(C)C[C@H](NC(=O)[C@H](CCS(C)(=O)=O)NC(=O)[C@@H](NC(=O)OC(C)(C)C)C(C)C)[C@@H](O)C[C@@H](C)C(=O)N[C@@H](C(=O)NCc1ccccc1)[C@@H](C)O"
  Answer Label: "not satisfied"
- Entry Smiles: "CSCC[C@H](NC(=O)[C@@H](NC(=O)OC(C)(C)C)C(C)C)C(=O)N[C@@H](CC(C)C)[C@@H](O)C[C@@H](CO)C(=O)N[C@H](C(=O)NCc1ccccc1)C(C)C"
  Answer Label: "satisfied"

Here is the next item to consider.
Record `CSCC[C@H](NC(=O)[C@H](CC(C)C)NC(=O)OC(C)(C)C)C(=O)N[C@@H](CC(C)C)[C@@H](O)C[C@@H](C)C(=O)N[C@H](C(=O)NCC(C)C)C(C)C` : is its % Inhibition Mep2 strictly below 50%?
not satisfied
